# STUDY TARGET: human cholecystokinin-1 receptor (CCK-1R) (Homo sapiens, UniProt P32238)
# Construct: host or cells: 1321-N1 cells
# Sequence (P32238 whole entry): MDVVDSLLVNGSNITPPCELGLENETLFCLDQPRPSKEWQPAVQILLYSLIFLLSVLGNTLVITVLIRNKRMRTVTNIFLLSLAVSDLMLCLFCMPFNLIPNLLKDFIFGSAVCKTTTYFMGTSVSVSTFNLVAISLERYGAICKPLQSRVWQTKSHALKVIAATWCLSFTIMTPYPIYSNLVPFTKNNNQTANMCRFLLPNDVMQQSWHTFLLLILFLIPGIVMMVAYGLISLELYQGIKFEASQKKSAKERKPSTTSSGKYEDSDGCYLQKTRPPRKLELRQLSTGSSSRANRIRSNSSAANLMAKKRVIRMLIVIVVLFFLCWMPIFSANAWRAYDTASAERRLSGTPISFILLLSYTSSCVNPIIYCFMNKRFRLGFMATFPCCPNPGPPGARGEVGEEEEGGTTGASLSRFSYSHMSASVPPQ
# EXPERIMENT: In vitro receptor binding to CCK-1R, SPA displacement of [125I]-CCK-8s from plasma membranes
pIC50: −log10 of the molar value. Starred links: 1 amine or outer side, 2 acyl side, 3 side chain; linkers in the order of their positions; H or OH if unused. Non-standard residues stand in square brackets, D forms with d. Residues, ends and D or L forms follow the SMILES beside them. *: point of attachment. Phe(4-CH2SO3H) = N[C@@H](Cc1ccc(CS(=O)(=O)O)cc1)C(=O)O; sY = N[C@@H](Cc1ccc(OS(=O)(=O)O)cc1)C(=O)O; C18 diacid = O=C(O)CCCCCCCCCCCCCCCCC(=O)*; C16 diacid = O=C(O)CCCCCCCCCCCCCCC(=O)*; γGlu = O=C(O)[C@H](CCC(=O)[*:2])N[*:1]; Met(O2) = CS(=O)(=O)CC[C@H](N)C(=O)O; NMeF = CN[C@@H](Cc1ccccc1)C(=O)O; dNMeD = CN[C@H](CC(=O)O)C(=O)O; Nle = CCCC[C@H](N)C(=O)O; AEEA = NCCOCCOCC(=O)O
VALUE TYPE: pIC50

COMPOUND: CCCC[C@H](NC(=O)[C@H](Cc1c[nH]c2ccccc12)NC(=O)CNC(=O)[C@H](CC(C)C)NC(=O)[C@H](Cc1ccc(CS(=O)(=O)O)cc1)NC(=O)[C@H](CC(=O)O)NC(=O)COCCOCCNC(=O)COCCOCCNC(=O)CC[C@H](NC(=O)CCCCCCCCCCCCCCC(=O)O)C(=O)O)C(=O)N(C)[C@H](CC(=O)O)C(=O)N(C)[C@@H](Cc1ccccc1)C(N)=O [Example 6] ({C16 diacid-γGlu-AEEA-AEEA}-D[Phe(4-CH2SO3H)]LGW[Nle][dNMeD][NMeF]-NH2)
VALUE TYPE: pIC50
OBS VALUE: 9.70

COMPOUND: CC(C)C[C@H](NC(=O)[C@H](Cc1ccc(OS(=O)(=O)O)cc1)NC(=O)[C@H](CC(=O)O)NC(=O)COCCOCCNC(=O)COCCOCCNC(=O)CC[C@H](NC(=O)CCCCCCCCCCCCCCCCC(=O)O)C(=O)O)C(=O)NCC(=O)N[C@@H](Cc1c[nH]c2ccccc12)C(=O)N[C@@H](CCC(N)=O)C(=O)N(C)[C@H](CC(=O)O)C(=O)N(C)[C@@H](Cc1ccccc1)C(N)=O [Example 11] ({C18 diacid-γGlu-AEEA-AEEA}-D[sY]LGWQ[dNMeD][NMeF]-NH2)
VALUE TYPE: pIC50
OBS VALUE: 10.08

COMPOUND: CC(C)C[C@H](NC(=O)[C@H](Cc1ccc(OS(=O)(=O)O)cc1)NC(=O)[C@H](CC(=O)O)NC(=O)COCCOCCNC(=O)COCCOCCNC(=O)CC[C@H](NC(=O)CCCCCCCCCCCCCCCCC(=O)O)C(=O)O)C(=O)NCC(=O)N[C@@H](Cc1c[nH]c2ccccc12)C(=O)N[C@H](C(=O)N(C)[C@H](CC(=O)O)C(=O)N(C)[C@@H](Cc1ccccc1)C(N)=O)C(C)C [Example 14] ({C18 diacid-γGlu-AEEA-AEEA}-D[sY]LGWV[dNMeD][NMeF]-NH2)
VALUE TYPE: pIC50
OBS VALUE: 9.51

COMPOUND: CC(C)C[C@H](NC(=O)[C@H](Cc1ccc(OS(=O)(=O)O)cc1)NC(=O)[C@@H](N)CC(=O)O)C(=O)NCC(=O)N[C@@H](Cc1c[nH]c2ccccc12)C(=O)N[C@@H](CCC(N)=O)C(=O)N(C)[C@H](CC(=O)O)C(=O)N(C)[C@@H](Cc1ccccc1)C(N)=O [Example 62] (H-D[sY]LGWQ[dNMeD][NMeF]-NH2)
VALUE TYPE: pIC50
OBS VALUE: 10.12

COMPOUND: CC(C)C[C@H](NC(=O)[C@H](Cc1ccc(OS(=O)(=O)O)cc1)NC(=O)[C@@H](N)CC(=O)O)C(=O)NCC(=O)N[C@@H](Cc1c[nH]c2ccccc12)C(=O)N[C@H](C(=O)N(C)[C@H](CC(=O)O)C(=O)N(C)[C@@H](Cc1ccccc1)C(N)=O)C(C)C [Example 65] (H-D[sY]LGWV[dNMeD][NMeF]-NH2)
VALUE TYPE: pIC50
OBS VALUE: 9.21

COMPOUND: CC[C@H](C)[C@H](NC(=O)[C@H](Cc1c[nH]c2ccccc12)NC(=O)CNC(=O)[C@H](CC(C)C)NC(=O)[C@H](Cc1ccc(OS(=O)(=O)O)cc1)NC(=O)[C@H](CC(=O)O)NC(=O)COCCOCCNC(=O)COCCOCCNC(=O)CC[C@H](NC(=O)CCCCCCCCCCCCCCCCC(=O)O)C(=O)O)C(=O)N(C)[C@H](CC(=O)O)C(=O)N(C)[C@@H](Cc1ccccc1)C(N)=O [Example 10] ({C18 diacid-γGlu-AEEA-AEEA}-D[sY]LGWI[dNMeD][NMeF]-NH2)
VALUE TYPE: pIC50
OBS VALUE: 10.00

COMPOUND: CC(C)C[C@H](NC(=O)[C@H](Cc1ccc(OS(=O)(=O)O)cc1)NC(=O)[C@@H](N)CC(=O)O)C(=O)NCC(=O)N[C@@H](Cc1c[nH]c2ccccc12)C(=O)N[C@@H](CCS(C)(=O)=O)C(=O)N(C)[C@H](CC(=O)O)C(=O)N(C)[C@@H](Cc1ccccc1)C(N)=O [Example 63] (H-D[sY]LGW[Met(O2)][dNMeD][NMeF]-NH2)
VALUE TYPE: pIC50
OBS VALUE: 9.27

COMPOUND: CC(C)C[C@H](NC(=O)[C@H](Cc1ccc(OS(=O)(=O)O)cc1)NC(=O)[C@@H](N)CC(=O)O)C(=O)NCC(=O)N[C@@H](Cc1c[nH]c2ccccc12)C(=O)N[C@@H](C)C(=O)N(C)[C@H](CC(=O)O)C(=O)N(C)[C@@H](Cc1ccccc1)C(N)=O [Example 84] (H-D[sY]LGWA[dNMeD][NMeF]-NH2)
VALUE TYPE: pIC50
OBS VALUE: 9.28
